The reported measurements were obtained from paper PMC7718258.

# system: mjCgi121;mjBud32;mjKae1;pfPcc1 (Methanocaldococcus jannaschii;Methanocaldococcus jannaschii;Methanocaldococcus jannaschii;Pyrococcus furiosus) (UniProt Q57646+Q58530+Q58530+Q9V1Z9)
# Sequence 1: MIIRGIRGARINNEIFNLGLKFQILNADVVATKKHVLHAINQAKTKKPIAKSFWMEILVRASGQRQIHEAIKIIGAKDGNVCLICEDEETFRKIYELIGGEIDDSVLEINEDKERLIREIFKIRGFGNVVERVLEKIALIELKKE
# Sequence 2: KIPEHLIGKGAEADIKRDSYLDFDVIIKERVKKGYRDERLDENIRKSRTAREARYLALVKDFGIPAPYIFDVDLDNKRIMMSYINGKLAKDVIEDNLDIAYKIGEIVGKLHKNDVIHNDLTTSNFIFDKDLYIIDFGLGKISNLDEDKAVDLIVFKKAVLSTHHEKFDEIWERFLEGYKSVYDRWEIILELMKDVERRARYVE
# Sequence 3: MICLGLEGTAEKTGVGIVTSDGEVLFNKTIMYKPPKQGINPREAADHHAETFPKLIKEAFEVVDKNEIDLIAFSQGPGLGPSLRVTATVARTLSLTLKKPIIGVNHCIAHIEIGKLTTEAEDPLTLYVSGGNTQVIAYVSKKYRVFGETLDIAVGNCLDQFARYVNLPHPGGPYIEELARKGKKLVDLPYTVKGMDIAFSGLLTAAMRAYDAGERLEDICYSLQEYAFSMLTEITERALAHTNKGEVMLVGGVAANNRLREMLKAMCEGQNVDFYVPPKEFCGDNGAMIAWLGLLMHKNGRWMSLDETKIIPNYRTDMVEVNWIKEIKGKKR
# Sequence 4: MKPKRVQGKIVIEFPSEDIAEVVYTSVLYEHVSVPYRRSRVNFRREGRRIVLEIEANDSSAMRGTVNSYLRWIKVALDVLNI
# test details: fluorescence polarization
# test conditions: 20 mM HEPES pH 7.5, 100 mM NaCl, 2 mM DTT; filter binding 50 nM 32P-tRNA, 1 h, room temperature; FP 50 nM 647-CCA; NMR 25 C with 10% D2O
measured endpoint: Kd (nM)
Number only, in nM; omit the unit.

# sequence CCGCCA [647-CCA] ; its Kd = 263
